Origin of the recorded values: paper PMC4055595

# tested-system: human MDR1-encoded P-gp (L-MDR1 cells) (Homo sapiens, UniProt P08183)
# Sequence (P08183 whole entry): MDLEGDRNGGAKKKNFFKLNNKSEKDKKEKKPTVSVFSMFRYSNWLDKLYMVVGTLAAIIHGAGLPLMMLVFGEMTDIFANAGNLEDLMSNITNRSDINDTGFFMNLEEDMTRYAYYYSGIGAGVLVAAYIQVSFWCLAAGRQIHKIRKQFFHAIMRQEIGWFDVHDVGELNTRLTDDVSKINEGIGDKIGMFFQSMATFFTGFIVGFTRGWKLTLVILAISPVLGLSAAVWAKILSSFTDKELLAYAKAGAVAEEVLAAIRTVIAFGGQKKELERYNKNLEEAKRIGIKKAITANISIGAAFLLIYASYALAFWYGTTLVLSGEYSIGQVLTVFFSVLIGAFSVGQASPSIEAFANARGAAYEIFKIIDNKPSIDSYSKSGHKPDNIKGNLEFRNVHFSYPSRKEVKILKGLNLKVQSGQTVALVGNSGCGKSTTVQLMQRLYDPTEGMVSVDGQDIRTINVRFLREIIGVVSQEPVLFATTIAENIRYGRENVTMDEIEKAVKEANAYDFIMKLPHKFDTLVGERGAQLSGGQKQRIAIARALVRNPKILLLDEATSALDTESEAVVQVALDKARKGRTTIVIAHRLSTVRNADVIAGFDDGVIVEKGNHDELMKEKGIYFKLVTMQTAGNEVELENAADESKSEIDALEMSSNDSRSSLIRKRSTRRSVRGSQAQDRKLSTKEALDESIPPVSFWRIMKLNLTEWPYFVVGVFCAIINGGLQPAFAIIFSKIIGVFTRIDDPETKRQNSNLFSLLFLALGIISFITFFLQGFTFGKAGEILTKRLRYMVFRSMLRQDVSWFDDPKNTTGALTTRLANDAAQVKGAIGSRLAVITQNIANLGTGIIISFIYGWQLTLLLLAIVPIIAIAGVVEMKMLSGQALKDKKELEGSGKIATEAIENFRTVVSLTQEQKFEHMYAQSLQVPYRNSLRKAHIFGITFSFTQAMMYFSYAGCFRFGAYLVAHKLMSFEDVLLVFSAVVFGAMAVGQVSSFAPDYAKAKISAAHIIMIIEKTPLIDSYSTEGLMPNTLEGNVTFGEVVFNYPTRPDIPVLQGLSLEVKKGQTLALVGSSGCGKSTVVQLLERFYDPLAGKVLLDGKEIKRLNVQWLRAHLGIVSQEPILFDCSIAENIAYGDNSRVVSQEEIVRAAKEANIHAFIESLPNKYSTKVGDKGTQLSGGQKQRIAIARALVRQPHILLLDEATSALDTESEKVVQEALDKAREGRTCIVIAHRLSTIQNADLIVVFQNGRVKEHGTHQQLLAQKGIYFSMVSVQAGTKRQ
# test-method-notes: Transport of digoxin and ginsenosides across L-MDR1 cell monolayers (efflux ratio)
# Type: in vitro ADME
# details: summary of transport/uptake in LLC-PK1, L-MDR1 and Caco-2 cells with verapamil
experimental-readout: P-gp substrate classification

[
  {
    "molecule": "CC(C)=CCC[C@](C)(O[C@@H]1O[C@H](CO[C@@H]2O[C@@H](CO)[C@H](O)[C@H]2O)[C@@H](O)[C@H](O)[C@H]1O)[C@H]1CC[C@]2(C)[C@@H]1[C@H](O)C[C@@H]1[C@@]3(C)CC[C@H](O[C@@H]4O[C@H](CO)[C@@H](O)[C@H](O)[C@H]4O[C@@H]4O[C@H](CO)[C@@H](O)[C@H](O)[C@H]4O)C(C)(C)[C@@H]3CC[C@]12C [Rc, ginsenoside Rc]",
    "experimental-readout": "P-gp substrate classification",
    "result": "moderate P-gp substrates"
  },
  {
    "molecule": "CC(C)=CCC[C@](C)(O[C@@H]1O[C@H](CO)[C@@H](O)[C@H](O)[C@H]1O)[C@H]1CC[C@]2(C)[C@@H]1[C@H](O)C[C@@H]1[C@@]3(C)CC[C@H](O[C@@H]4O[C@H](CO)[C@@H](O)[C@H](O)[C@H]4O[C@@H]4O[C@H](CO)[C@@H](O)[C@H](O)[C@H]4O)C(C)(C)[C@@H]3CC[C@]12C [Rd, ginsenoside Rd]",
    "experimental-readout": "P-gp substrate classification",
    "result": "moderate P-gp substrates"
  },
  {
    "molecule": "CC(C)=CCC[C@](C)(O)[C@H]1CC[C@]2(C)[C@@H]1[C@H](O)C[C@@H]1[C@@]3(C)CC[C@H](O[C@@H]4O[C@H](CO)[C@@H](O)[C@H](O)[C@H]4O[C@@H]4O[C@H](CO)[C@@H](O)[C@H](O)[C@H]4O)C(C)(C)[C@@H]3CC[C@]12C [Rg3, ginsenoside Rg3]",
    "experimental-readout": "P-gp substrate classification",
    "result": "moderate P-gp substrates"
  }
]
